# Test system: DIPGX37 (H3.3 K27M diffuse intrinsic pontine glioma line)
# method.notes: growth inhibition (% activity, log2 RLU normalised to DMSO / staurosporine); higher = more growth inhibition
# measurement.parameters: 33 µM
I'd be grateful if you could share measured growth inhibition for these entries.
Answers are plain numbers, in %.

Known results for compounds:
compound	measurement.target	growth inhibition [%]
NC(Cc1cc(I)c(Oc2cc(I)c(O)c(I)c2)c(I)c1)C(=O)O (centres undefined)	DIPGX37	2.96
CC(=O)[C@H]1CC[C@H]2[C@@H]3C=CC4=CC(=O)CC[C@@]4(C)[C@@H]3CC[C@]12C	DIPGX37	4.22
C=C[C@H]1CN2CC[C@H]1C[C@H]2[C@H](O)c1ccnc2ccc(OC)cc12	DIPGX37	3.05
COc1ccc(CN(CCN(C)C)c2ccccn2)cc1	DIPGX37	-0.213
CCCCC(=O)O[C@]1(C(=O)CO)[C@@H](C)C[C@H]2[C@@H]3CCC4=CC(=O)C=C[C@]4(C)[C@@]3(F)[C@@H](O)C[C@@]21C	DIPGX37	4.71

Quick batch: growth inhibition for everything below.
1. c1ccc(-c2ccc(C(c3ccccc3)n3ccnc3)cc2)cc1 (centres undefined)
2. O=C1OC(CN2CCOCC2)CN1/N=C/c1ccc([N+](=O)[O-])o1 (centres undefined)
3. C=C1c2cccc(O)c2C(O)=C2C(=O)[C@]3(O)C(O)=C(C(N)=O)C(=O)[C@@H](N(C)C)[C@@H]3[C@@H](O)[C@H]12
4. O=c1oc2cc(O)ccc2s1

Reply:
1: 2.9; 2: 1.22; 3: 2.83; 4: 3.19
